- Tested on: Candida albicans
- ASSAY METHOD TEXT: Antifungal activity against Candida albicans MTCC 227 by broth microdilution method
- Assay type: functional
In this section, each of the compounds is paired with its reported MIC.
Reply with just the number (in mg/L).

# annotated cases, reported MIC shown
Cc1ccc(-c2nnc(-c3cccnc3)n2Nc2nc3c(Cl)cccc3s2)cc1 = 500
NNc1nc2ccc([N+](=O)[O-])cc2s1 = 500
Cc1ccc(-c2nnc(-c3cccnc3)n2Nc2nc3c(C)cccc3s2)cc1 = 100
Cc1ccc2nc(NN)sc2c1 = 250
Cc1ccc(-c2nnc(-c3cccnc3)n2Nc2nc3c([N+](=O)[O-])cccc3s2)cc1 = 1000

Q. API: value(readout= MIC, system= Candida albicans, query= Cc1ccc(-c2nnc(-c3cccnc3)n2Nc2nc3ccc(F)cc3s2)cc1 )
A. 500

Q. API: value(readout= MIC, system= Candida albicans, query= NNc1nc2ccc(Cl)cc2s1 )
A. 250

Q. API: value(readout= MIC, system= Candida albicans, query= COc1ccc2nc(NN)sc2c1 )
A. 500

Q. API: value(readout= MIC, system= Candida albicans, query= Cc1ccc(-c2nnc(-c3cccnc3)n2Nc2nc3ccc(Br)cc3s2)cc1 )
A. 1000

Q. API: value(readout= MIC, system= Candida albicans, query= NNc1nc2ccc(F)cc2s1 )
A. 250

###

In this section, each of the compounds is paired with its reported MIC.
- Tested on: Mycobacterium tuberculosis
- ASSAY METHOD TEXT: Antimycobacterial activity against Mycobacterium tuberculosis H37Rv after up to 28 days
- Assay type: functional
- EXPERIMENTAL PARAMETERS: 672 h
Reply with just the number (in µg/mL).

# annotated cases, reported MIC shown
NNc1nc2ccc(Br)cc2s1 = 500
Cc1ccc(-c2nnc(-c3cccnc3)n2Nc2nc3ccc(Cl)cc3s2)cc1 = 100
Cc1ccc(-c2nnc(-c3cccnc3)n2Nc2nc3cc(Cl)c(Cl)cc3s2)cc1 = 100
COc1ccc2nc(NN)sc2c1 = 50

Q. API: value(readout= MIC, system= Mycobacterium tuberculosis, query= Cc1ccc(-c2nnc(-c3cccnc3)n2Nc2nc3c([N+](=O)[O-])cccc3s2)cc1 )
A. 50

Q. API: value(readout= MIC, system= Mycobacterium tuberculosis, query= NNc1nc2c(Cl)cccc2s1 )
A. 100

###

- Tested on: Candida albicans
- ASSAY METHOD TEXT: Antifungal activity against Candida albicans MTCC 227 by broth microdilution method
- Type: functional
MEASURED PARAMETER: MIC (µg/mL)
Reply with just the number (in µg/mL).

NNc1nc2c(Cl)cccc2s1 = 1000
Cc1ccc(-c2nnc(-c3cccnc3)n2Nc2nc3ccc(C)cc3s2)cc1 = 500
Cc1ccc(-c2nnc(-c3cccnc3)o2)cc1 = 1000
Cc1ccc(-c2nnc(-c3cccnc3)n2Nc2nc3ccc(Cl)cc3s2)cc1 = 500
NNc1nc2ccc(Br)cc2s1 = 500

Q. // query MIC value for entry COC1=CC(=O)C[C@@H](C)[C@]12Oc1c(Cl)c(OC)cc(OC)c1C2=O
A. 500

Q. // query MIC value for entry NNc1nc2c([N+](=O)[O-])cccc2s1
A. 200

Q. // query MIC value for entry Cc1ccc(-c2nnc(-c3cccnc3)n2Nc2nc3cc(Cl)c(Cl)cc3s2)cc1
A. 200

Q. // query MIC value for entry Cc1cccc2sc(NN)nc12
A. 500

Q. // query MIC value for entry Cc1ccc(-c2nnc(-c3cccnc3)n2Nc2nc3ccc([N+](=O)[O-])cc3s2)cc1
A. 500

Q. // query MIC value for entry NNc1nc2cc(Cl)c(Cl)cc2s1
A. 500

Q. // query MIC value for entry COc1ccc2nc(Nn3c(-c4ccc(C)cc4)nnc3-c3cccnc3)sc2c1
A. 250

Value source: ChEMBL document CHEMBL1240474
